Biological target: UniProtKB Q64654
Sequence (Q64654 1-503): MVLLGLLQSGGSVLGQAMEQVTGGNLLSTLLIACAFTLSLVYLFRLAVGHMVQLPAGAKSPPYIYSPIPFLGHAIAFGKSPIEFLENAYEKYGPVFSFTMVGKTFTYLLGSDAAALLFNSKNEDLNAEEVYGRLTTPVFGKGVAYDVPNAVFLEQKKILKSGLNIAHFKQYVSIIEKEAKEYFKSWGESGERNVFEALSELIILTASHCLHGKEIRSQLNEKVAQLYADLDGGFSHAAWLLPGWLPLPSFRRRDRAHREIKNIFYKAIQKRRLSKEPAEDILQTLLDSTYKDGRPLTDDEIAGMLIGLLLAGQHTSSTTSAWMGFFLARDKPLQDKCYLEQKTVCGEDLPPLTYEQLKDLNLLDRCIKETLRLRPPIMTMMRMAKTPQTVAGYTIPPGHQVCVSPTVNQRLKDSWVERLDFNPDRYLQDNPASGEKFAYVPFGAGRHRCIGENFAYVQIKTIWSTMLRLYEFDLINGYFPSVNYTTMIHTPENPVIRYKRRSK
experimentalReadout: IC50 (µM)
Give just the number in µM; leave the unit off.

Prompt: Give reported IC50 for C=CC(O)[C@@]12CC[C@H]([C@H](C)CCCC(C)C)[C@@]1(C)CCC1=C2CC[C@H]2C(C)(C)[C@@H](O)CC[C@]12C (single isomer, unassigned) [Compound 11a] (UniProtKB Q64654)
Completion: 0.8
